# tested.on: T1, human TMEM106B (human, UniProt Q9NUM4 2-274)
# T1 construct: Full-length cDNA transiently transfected into HEK293 cells; also called huTMEM106B
# procedure.summary: flow cytometry, HEK293 cells transiently transfected with human TMEM106B
Quick rule for you: fold-change in binding over parental HEK293 cells at 9 fold or higher means t, lower means f.

Worked examples follow.
binder	assigned.category
TM-66 (antibody, V domains shown, Purified from mouse hybridoma) VH: EVMLVESGGALVEPGGSLKLSCAASGITFSNYAMSWIRQTPEKRLEWVATIGSVGSYTYYPDSVKGRFTISRDNARNTLYLQMSSLRSEDTAMYYCARQEGSSHFDYWGQGTTLTVSS VL: DVVVTQTPPSLPVSFGDQVSISCRSSQSLVNSYGKTFLSWYLHKPGQSPQLLIYGISNRFSGVPDRFSGSGSGTVFTLKISTIKPEDLGMYYCLQGTHPPLTFGAGTKLEMK	f
TM-72 (antibody, V domains shown, Purified from mouse hybridoma) VH: QVQLQQPGAELVKPGTSVKLSCKASGSTFTNYWMHWVMQRPGQGLEWIGNIDPSDSDTHYNQKFKDRAKLTVDKSSSTAYMQLSGLTSEDSAVYYCARSRGGYYDYGEAMDYWGQGTSVTVSS VL: DIVMTQAAPSVPVTPGESVSISCRSSKSLLHTNGNTYLFWFIQRPGQSPHLLIYRKSNLASGVPDRFSGSGSGTAFTLRISRVEAEDVGVYYCMQHLEYPFTFGSGTKLEIK	f
TM-56 (antibody, V domains shown, Purified from mouse hybridoma) VH: QVHLQQSGAELAKPGASVKLSCKASGYTFTSYWMHWVKQRPGQGLEWIGYINPSSGYSKYNQRFKDKATLTADKSSTTAYMHLSSLTYADSAVYYCTREGGSISDWYFDVWGTGTTVTVSS VL: DIEMTQAAPSVPVTPGESVSISCRSSKSLLQNNGNTYLYWFLQRPGQPPQLLIYRMSNLASGVPDRFSGSGSGTAFTLRISRVEAEDVGVYYCMQHLEYPYTFGGGTKLEIK	t
TM-54 (antibody, V domains shown, Purified from mouse hybridoma) VH: QVQMQQSGPVLVKPGASVTLSCKASGYTFTTYDLNWVKQRPGQGLEWIGWIYPRGGSTEYNEKFKGKATLTVDTSSSTAYMELHSLTSEDSAVYFCAKYSIYAMDYWGQGTSVTVSS VL: DVLMTQTPLSLPVSLGDQASISCRSSQSIVHGNGNTYLEWYLQKPGQSPKLLIYKVSNRFSGVPDRFSGSGSGTDFTLKISRVEAEDLGVYYCFQGSHVPWTFGGGTKLEMK	t

Reported fold-change in binding over parental HEK293 cells at or above 9 fold? TM-85 (antibody, V domains shown, Purified from mouse hybridoma) VH: QVQLQQPGAELVRAGTSVKLSCKASGYTFIGYWMHWVKQRPGRGLEWIGRIDPYSGDTRYNEKFKNKATLTVDKPSSTAYMQLSSLTSEDSAVYYCARYGLGHAMDYWGQGTSVTVSS VL: DIAMSQSQKFMSTSVGDRVSVTCKASQNVGTNVAWYQQKPGQSPKALIYSASYRYSGVPDRFTGSGSGTDFTLTISNVQSEDLAEYFCQQYNSYPLTFGAGTKLEMK
f
